tested on: SK-MEL-5 melanoma; experiment: NCI tumour cell line growth inhibition, 48 h
Recorded TGI, one value per entry.

| molecule | TGI |
| --- | --- |
| COc1ccc(-c2oc3c(OC)c(OC)cc(O)c3c(=O)c2OC)cc1 | > 100 µM |
| CCC1NC(N=Nc2ccc([N+](=O)[O-])cc2)(P(=O)(OC(C)C)OC(C)C)OC1=O (stereo not drawn) | > 100 µM |
| CC(=O)OC(Cc1c(O)c2c(C)cccc2oc1=O)C(C)(C)O (stereo not drawn) | > 100 µM |

====

Recorded log10 of TGI, one value per entry.
system: KM12 colon; assay: NCI tumour cell line growth inhibition, 48 h
measured_property: log10 of TGI (log10 of the value in µM)

| molecule | result_value |
| --- | --- |
| C[C@]12CC[C@@H]3c4ccc(O)cc4CC[C@H]3[C@@H]1Cc1cnc(N)nc12 | 1.43 |
| CC(C)NC(=O)OCc1c2c(n(C)c1COC(=O)NC(C)C)-c1ccccc1CC2 | 1.46 |
| CC[C@H](CO)Nc1nc(NCc2ccccc2)c2ncn(C(C)C)c2n1 | 1.78 |
| O=C(c1ccccc1)N1C(=S)N(c2ccccn2)C(=Nc2ccccc2)C1=Nc1ccccc1 | 1.28 |
| COc1cnc2c(c1)C(=O)c1c-2n(CCCNC2=NCCS2)c(=O)c2cc(Cl)ccc12 | 0.45 |
| C[C@@H]1CC[C@@]2(OC1)O[C@H]1C[C@H]3[C@@H]4CC[C@H]5C[C@@H](OC6OC(CO)C(OC7OC(CO)C(O)C(OC8OCC(O)C(O)C8O)C7OC7OC(CO)C(O)C(O)C7O)C(O)C6O)[C@H](O)C[C@]5(C)[C@H]4CC[C@]3(C)[C@H]1[C@@H]2C (stereo not given in full) | 1.37 |
| COC(=O)C12OC3CO[Si](C(C)C)(C(C)C)O[Si](C(C)C)(C(C)C)OC3C1Oc1nc(=O)ccn12 (stereo not given) | 1.47 |

====

test system: SN12C renal; assay: NCI tumour cell line growth inhibition, 48 h
measured_property: TGI (µM)

| compound | measured_target | measured_property | relation_qualifier | result_value |
| --- | --- | --- | --- | --- |
| c1ccc(CSC2(SCc3ccccc3)CCCCC2)cc1 | SN12C renal | TGI | > | 10 |
| O=c1c(O)c(-c2ccc(O)c(O)c2)oc2cc(O)cc(O)c12 | SN12C renal | TGI | > | 100 |
| O=C1CC(NCc2ccccc2)c2c(Cl)sc(Cl)c21 (centres undefined) | SN12C renal | TGI | = | 58 |
| Oc1c(Cl)c(Cl)c(O)c2c1CCCC2 | SN12C renal | TGI | = | 30.2 |
| C#CCNCCN1C(=O)c2ccc3c4c(ccc(c24)C1=O)C(=O)N(CCNCC#C)C3=O | SN12C renal | TGI | = | 9.32 |
| O=C(Nc1ccc(Cl)cc1)c1cc(S(=O)(=O)Nc2nnc3c(Cl)cc(C(F)(F)F)cn23)c(S)cc1Cl | SN12C renal | TGI | > | 100 |
| C[CH2][Sn]([CH2]C)([O]C(=O)c1ccccc1F)[O][Sn]([CH2]C)([CH2]C)[O]C(=O)c1ccccc1F | SN12C renal | TGI | > | 57.4 |
| COC(=O)CC1c2ccccc2N2C(=O)Cc3c([nH]c4ccccc34)C12 (centres undefined) | SN12C renal | TGI | > | 100 |
| CN(C)CC1CCC2=C(C1=O)C(c1ccc(Cl)c(Cl)c1)C1=C(CCC(CN(C)C)C1=O)O2 (centres undefined) | SN12C renal | TGI | = | 30.2 |

====

test system: MALME-3M melanoma; test: NCI tumour cell line growth inhibition, 48 h
measured_property: TGI

| compound | measured_target | measured_property | result_value |
| --- | --- | --- | --- |
| Nc1ccccc1C#C/C=C\C#Cc1cccc(O)c1 | MALME-3M melanoma | TGI | > 43.4 µM |
| COc1ccc(/C=C2\C[C@H]3[C@@H]4CCC5=CC(=O)CC[C@]5(C)[C@H]4CC[C@]3(C)C2=O)cc1OC | MALME-3M melanoma | TGI | > 100 µM |
| Cc1ccc2c(/C=C/c3ccc(N(C)C)cc3)ccc(C(C)C)cc1-2 | MALME-3M melanoma | TGI | > 100 µM |
| O=C(OCCNC(=O)N1CC1)OCCNC(=O)N1CC1 | MALME-3M melanoma | TGI | > 10 µM |
| N#Cc1c(-c2ccccc2)c(CN2CCCCC2)c(=O)n2c1[nH]c1ccccc12 | MALME-3M melanoma | TGI | > 100 µM |
| COC(=O)C(CC1=C(O)Nc2ccccc2N1)/C(=N/NC(N)=O)C(=O)Nc1ccccc1C (centres undefined) | MALME-3M melanoma | TGI | > 100 µM |
| COC(=O)Nc1nc2ccc(Oc3cccc(NC(=O)Nc4cc(C(F)(F)F)ccc4F)c3)cc2[nH]1 | MALME-3M melanoma | TGI | > 25 µM |
| O=C(N/C(=C\c1ccc(/C=C(\NC(=O)c2ccccc2)c2nc3ccccc3[nH]2)cc1)c1nc2ccccc2[nH]1)c1ccccc1 | MALME-3M melanoma | TGI | > 100 µM |
| CCOC(=O)c1c(NC(=S)Nc2ccccc2)sc2c1CCOC2 | MALME-3M melanoma | TGI | > 100 µM |

====

tested on: MOLT-4 leukemia; test: NCI tumour cell line growth inhibition, 48 h
measured_property: TGI

| compound | result_value |
| --- | --- |
| CC(C)N(C(C)C)S(=O)(=O)C[C@]12CC[C@H](CC13OCC(CS(=O)(=O)c1ccccc1)O3)C2(C)C (some centres not stated) | 45.7 µM |
| COC(=O)CCC(NC(=O)OC(C)(C)C)C(=O)NC(Cc1ccc(NC(=O)CCCC(C)=O)cc1)C(=O)NC(CCC(=O)OC)C(=O)OC (configuration not stated) | > 100 µM |
| O=C1c2ccccc2N2Oc3ccccc3C12c1ccccc1 (configuration not stated) | > 100 µM |
| CCOC1CC(C)N(C(=O)c2ccccc2)O1 (configuration not stated) | > 100 µM |
| COc1ccc(CC(=O)c2ccc(O)cc2O)cc1 | > 100 µM |
| CN(C)c1ccc(C(=NO)c2ccc(N(C)C)cc2)cc1 | > 100 µM |
| O=S(=O)(c1cccc2c(I)cccc12)N1CCCNCC1 | 27.6 µM |
| O=c1c(O)c(-c2ccc(O)c(O)c2)oc2cc(O)cc(O)c12 | > 100 µM |
| O=C(N/N=C/c1ccccc1)c1cccc2nc3ccccc3nc12 | > 100 µM |
| CN(C)C(=O)c1cnc2oc3ccc(O)cc3c2c1-c1ccccc1 | > 25 µM |
| CCN1C(=O)N(CC)C2C1NN=c1s/c(=C\c3ccccn3)c(=O)n12 (configuration not stated) | > 100 µM |
| N#Cc1c(-c2ccccc2)c(CN2CCCCC2)c(=O)n2c1[nH]c1ccccc12 | 45.4 µM |

====

system: SK-MEL-5 melanoma; assay: NCI tumour cell line growth inhibition, 48 h

| molecule_smiles | TGI |
| --- | --- |
| CC(=O)[O][Sn]([CH2]c1ccccc1)([CH2]c1ccccc1)[CH2]c1ccccc1 | > 6.51 µM |
| CN1CCc2[nH]nc(-c3n[nH]c4c3CN(C)CC4)c2C1 | > 100 µM |
| CN(C)c1ccc(C=C2C(=O)NC(=S)NC2=O)c2ccccc12 | > 100 µM |
| Cc1ccc(C(=O)NC2CCC2)cc1-c1ccc(C(=O)NCC2CC2)cc1 | > 25 µM |
| Cc1ccc2c(/C=C/c3ccc(N(C)C)cc3)ccc(C(C)C)cc1-2 | > 100 µM |

====

system: BT-549 breast; assay: NCI tumour cell line growth inhibition, 48 h
Recorded TGI, one value per entry.

| molecule_smiles | TGI |
| --- | --- |
| Cc1nc2sccn2c1/C=C1/C(=O)Nc2cccc(Cl)c21 | > 100 µM |
| Cc1ccc2c(/C=C/c3ccc(N(C)C)cc3)ccc(C(C)C)cc1-2 | > 100 µM |
| Nc1c(C(=O)c2cccc(-c3cccnc3)c2)cnn1-c1ccc(F)cc1F | > 25 µM |
| O=C(Nc1ccc(Oc2cccc(F)c2)c(Cl)c1)c1cnccn1 | > 50 µM |
| CNc1nc(C(N)=O)c(N)s1 | > 100 µM |
| Cc1cnc2[nH]c(-c3ccc4ccccc4c3)cc(=O)c2c1 | > 100 µM |
| CN(C)c1ccc(C=C2C(=O)NC(=S)NC2=O)c2ccccc12 | > 100 µM |
| Cc1n(Cc2ccccc2)nc2sc(N)n[n+]12 | > 100 µM |

====

Recorded TGI, one value per entry.
test system: COLO 205 colon; assay: NCI tumour cell line growth inhibition, 48 h

| molecule | TGI |
| --- | --- |
| c1ccc2c(c1)OC(N1CCCC1)c1cnc(N3CCOCC3)nc1-2 (configuration not stated) | > 100 µM |
| CCN(CC)c1oc(N(CC)CC)c(C(=O)Nc2ccccn2)c(=O)c1C(C)=O | > 100 µM |
| Cc1ccc2c(=O)c3ccccc3sc2c1 | > 100 µM |
| Cn1c(N)nc(-c2ccc(Cl)cc2)c1SSc1c(-c2ccc(Cl)cc2)nc(N)n1C | 3.81 µM |
| CCOC(=O)c1nc2ccc(C(F)(F)F)cc2nc1Oc1ccc(C(=O)OC)cc1 | > 100 µM |
| O=CN1CCN(C(=O)c2ccc(Cl)c(Cl)c2)C1=S | 37.8 µM |
| CCSc1nc(SCC)c2c(-c3ccc(OC)c(OC)c3)c(C#N)c(SCC)nc2n1 | > 100 µM |
| CNc1nc(C(N)=O)c(N)s1 | > 100 µM |
| Cc1ccc(Nc2nc3c(=O)n(C)c(=O)n(C)c3nc2Nc2ccc(C)cc2)cc1 | 16 µM |
| Nc1c(C(=O)c2cccc(C#CCO)c2)cnn1-c1ccc(F)cc1 | > 25 µM |
| CC(=O)[CH-]C(=O)c1ccccc1.CC(=O)[CH-]C(=O)c1ccccc1.CC(=O)[CH-]C(=O)c1ccccc1.[In+3] | 85.4 µM |
| CCCN(CCC)C(=O)C(=O)c1c(N)[nH]n(-c2ccccc2)c1=O | > 100 µM |
| CN1CCc2[nH]nc(-c3n[nH]c4c3CN(C)CC4)c2C1 | > 100 µM |
| CCn1cnnc1-c1nsc2ccccc12 | > 100 µM |
| CC[C@H](CO)Nc1nc(NCc2ccccc2)c2ncn(C(C)C)c2n1 | 36.6 µM |
| OC1CSc2nc3ccccc3n2C1 (configuration not stated) | > 100 µM |
| CNC(=O)OCc1c2ccncc2c(C)c2c1[nH]c1ccc(OC)cc12 | 2.11 µM |
